System: Escherichia coli IFO 3301
assay_name: Minimum inhibitory concentration, agar plate for measuring susceptibility
Type: cell-based
cond: Escherichia coli, IFO3301; Table 2, raw materials; amino acid plates held 500 to 20,000 μg/ml α-amino acid; read-out: Minimum Inhibitory Concentration CaO; Escherichia coli IFO 3301 (Gram-negative bacteria)
Property: MIC; scope: individual molecules

smiles_record	MIC
NC(=O)C[C@H](N)C(=O)O	> 20000 µg/mL
NCC(=O)O	> 10000 µg/mL
CC[C@H](C)[C@H](N)C(=O)O	> 10000 µg/mL
C[C@@H](O)[C@H](N)C(=O)O	> 20000 µg/mL
NC(=O)CC[C@H](N)C(=O)O	> 20000 µg/mL
CC(C)C[C@H](N)C(=O)O	> 10000 µg/mL
C[C@H](N)C(=O)O	> 10000 µg/mL
CC(C)[C@H](N)C(=O)O	> 10000 µg/mL
N[C@@H](CSSC[C@H](N)C(=O)O)C(=O)O	> 20000 µg/mL
CSCC[C@H](N)C(=O)O	> 10000 µg/mL
